All figures here come from patent US12295396B2.

Target: hT2R54 (Homo sapiens, UniProt P59534)
Construct: expressed in transfected cells; it overexpresses a promiscuous G protein
Sequence (P59534 1-338): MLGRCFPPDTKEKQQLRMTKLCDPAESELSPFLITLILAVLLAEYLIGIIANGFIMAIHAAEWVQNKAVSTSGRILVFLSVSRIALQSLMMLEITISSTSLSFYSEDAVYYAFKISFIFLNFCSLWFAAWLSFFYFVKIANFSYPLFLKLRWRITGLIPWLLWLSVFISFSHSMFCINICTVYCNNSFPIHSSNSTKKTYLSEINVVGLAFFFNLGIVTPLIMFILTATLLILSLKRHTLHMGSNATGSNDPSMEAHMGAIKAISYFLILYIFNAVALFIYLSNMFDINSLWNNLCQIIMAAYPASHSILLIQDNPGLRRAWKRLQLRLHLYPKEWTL
Assay: Cell-based assay for measuring hT2R54 inhibition (FLIPR calcium, Fluo4AM, acetaminophen as bitter agonist)
Details: Table 4; cells stably expressing hT2R54 and a promiscuous G protein; read-out: hT2R54 IC50
pIC50: −log10 of the molar value.
measured.endpoint: pIC50

CCNC(=O)CCN(C)CC(=O)Nc1cc2c(cc1C(C)=O)OCO2 [compound 135]    6.30
CCOC(=O)C1CCN(CC(=O)Nc2cc3c(cc2C(C)=O)OCO3)CC1 [compound 116]    6.99
CCOC(=O)CCN(C)CC(=O)Nc1cc2c(cc1OC)OCO2 [compound 142]    6.64

(a) CC(=O)c1cc2c(cc1NC(=O)CN(C)C1CCCCC1)OCO2 [compound 130]
(b) CCOC(=O)C1CCC(N(C)CC(=O)Nc2cc3c(cc2C(C)=O)OCO3)CC1 (stereo not drawn) [compound 141]
(c) COCCCN(C)CC(=O)Nc1cc2c(cc1C(C)=O)OCO2 [compound 425]
Q: Order these by pIC50, descending, and give the full ranking. // format: requested-order list of labels
Result: b, a, c
(b: 6.77, a: 6.51, c: 6.19)

(I) COc1cc2c(cc1NC(=O)C(C)N1CCN(C(=O)OC(C)(C)C)CC1)OCO2 (stereo not drawn) [compound 446]
(II) CC(=O)c1cc2c(cc1NC(=O)CN(C)C1CCN(C(=O)OC(C)(C)C)CC1)OCO2 [compound 140]
Q: Could you tell me which of I and II has the lower pIC50 reading? In your reply, give the label of the chosen option.
Result: II

---

molecular target: hT2R54 (Homo sapiens, UniProt P59534); construct: expressed in transfected cells; it overexpresses a promiscuous G protein; experiment: Cell-based assay for measuring hT2R54 inhibition (FLIPR calcium, Fluo4AM, acetaminophen as bitter agonist); conditions: Table 7; cells stably expressing hT2R54 and a promiscuous G protein; read-out: hT2R54 IC50
measured.endpoint: IC50 (nM)

Example entries begin here.
CC(=O)c1cc2c(cc1NC(=O)CN(C)C1CCN(C(=O)CC(C)C)CC1)OCO2    98
CC(=O)c1cc2c(cc1NC(=O)CN(C)C1CCN(C(=O)c3ccco3)CC1)OCO2    61
CCNC(=O)N1CCCC(N(C)CC(=O)Nc2cc3c(cc2C(C)=O)OCO3)C1 (centres unmarked)    30
CC(=O)c1cc2c(cc1NC(=O)CN(C)C1CCCN(C(=O)c3cccnc3)C1)OCO2 (centres unmarked)    100
CCCS(=O)(=O)N1CCCC(N(C)CC(=O)Nc2cc3c(cc2C(C)=O)OCO3)C1 (centres unmarked)    40
CC(=O)c1cc2c(cc1NC(=O)CN(C)C1CCCN(C(=O)CC(C)C)C1)OCO2 (centres unmarked)    50

(P) CCOC(=O)N1CCCC(N(C)CC(=O)Nc2cc3c(cc2C(C)=O)OCO3)C1 (centres unmarked)
(Q) CC(=O)c1cc2c(cc1NC(=O)CN(C)C1CCCN(C(=O)c3ccco3)C1)OCO2 (centres unmarked)
Q: Sort P and Q by IC50 descending and give the first. Give the label under which the chosen entry appears.
Result: P
